Absolute DNA transfection efficiency in HEK293 cells for assorted compounds
# Test system: HEK293 cells
# assay: Preliminary screening as DNA vectors, GFP transfection of HEK293 cells
# Assay type: cell-based
# assay setup: amino lipid/DOPE liposome with 75 ng plasmid DNA (psin-EGFP-IRES-Puro); number of GFP-expressing cells divided by total nuclei (Hoechst)
Answer format: value, then unit.

Example compounds with recorded Absolute DNA transfection efficiency in HEK293 cells:
smiles data	test result
CCCCCCCCCCCCCCSc1nc(NCCN(CC)CC)nc(SCCCCCCC)n1	4.0%
CCCCCCCCCCCCCCSc1nc(NCCCCCCC)nc(NCCN(CC)CC)n1	10.5%
CCCCCCSc1nc(NCCN(CC)CC)nc(SCCCCCC)n1	23.0%

// recorded Absolute DNA transfection efficiency in HEK293 cells for CCCCCCCCCCCCCCCCCCNc1nc(NCCCN2CCOCC2)nc(SCCCCCCCCCCCCCC)n1 : 0.1%

// recorded Absolute DNA transfection efficiency in HEK293 cells for CCCCCCCCCCCCCCCSc1nc(NCCCCCCCCCCCCC)nc(NCCN2CCCCC2)n1 : 0.0%

// recorded Absolute DNA transfection efficiency in HEK293 cells for CCCCCCCCCCCCCCCCSc1nc(NCCCCCCCCCCCC)nc(NCCN2CCCCC2)n1 : 0.0%

---

# System: HEK293 cells
# assay: Preliminary screening as mRNA vectors, EGFP mRNA transfection of HEK293 cells
# Type: cell-based
# assay setup: EGFP mRNA 50 ng per well, 96-well plates; percentage of GFP fluorescent cells relative to total number of cells (Hoechst)
# Protocol: Cell line: HEK293 cells (ATCC CRL-1573™) Medium: DMEM supplemented with 10% fetal bovine serum (Invitrogen) Screening: cell transfection on 96-well plates Detection (readout): percentage of the number of GFP fluorescent cells relative to the total number of cells (the total number of cells was determined using nucleus dye Hoechst). Lipofectamine2000 (Invitrogen) was used as the positive control. […]
Absolute mRNA transfection efficiency in HEK293 cells for assorted compounds
Answer format: value, then unit.

smiles data	test result
CCCCCCCCCCCCCCCCSc1nc(NCCCCCCC)nc(NCCCN2CCOCC2)n1	17.7%
CCCCCCCCCCCCCCCCCCSc1nc(NCCCCCCCCCCC)nc(NCCN(C)C)n1	1.3%
CCCCCCCCCCCCN(CCCCCCCCCCCC)c1nc(NCCN(CC)CC)nc(SCCCCCCCC)n1	1.3%
CCCCCCCCCCCCCCCCCCNc1nc(NCCN2CCCCC2)nc(SCCCCCCC)n1	7.9%
CCCCCCCCCCSc1nc(NCCCCCCC)nc(NCCN2CCCC2)n1	1.4%

Absolute mRNA transfection efficiency in HEK293 cells on HEK293 cells for CCCCCCCCCCCCCCCCSc1nc(NCCCCCCCC)nc(NCCCN2CCOCC2)n1 is 17.8%

---

Absolute mRNA transfection efficiency in HEK293 cells for assorted molecules
# System: HEK293 cells
# assay: Preliminary screening as mRNA vectors, EGFP mRNA transfection of HEK293 cells
# Assay type: cell-based
# assay setup: HEK293 cells, 96-well plates, EGFP mRNA 50 ng per well; percentage of GFP fluorescent cells relative to total number of cells (Hoechst)

molecule	test result
CCCCCCCCCCCCCCSc1nc(NCC2CCN(C)CC2)nc(SCCCCCCCC)n1 [Compound S8S14D10]	60.5%
CCCCCCCCCCCCNc1nc(NCC2CCN(C)CC2)nc(N(CCCCCCCCCCCC)CCCCCCCCCCCC)n1 [N12^2N12D10]	0.9%
CCCCCCCCCCCCCCCCSc1nc(NCC2CCN(C)CC2)nc(SCCCCCCCCCCCCCCCC)n1 [Compound S16S16D10]	2.7%

// recorded Absolute mRNA transfection efficiency in HEK293 cells for CCCCCCCCCCCNc1nc(NCCCCCCCC)nc(NCCN(C)C)n1 [Compound N8N11D1] : 0.0%

// recorded Absolute mRNA transfection efficiency in HEK293 cells for CCCCCCCCCCCCCCCCCCNc1nc(NCCCCCCCCC)nc(NCCN(C)C)n1 [Compound N9N18D1] : 5.1%

// recorded Absolute mRNA transfection efficiency in HEK293 cells for CCCCCCCCCCCSc1nc(NCCCN(C)C)nc(SCCCCCCCCCC)n1 [Compound S10S11D6] : 83.8%

// recorded Absolute mRNA transfection efficiency in HEK293 cells for CCCCCCCCCCCCCNc1nc(NCCCCCCCC)nc(NCCCN(C)C)n1 [Compound N8N13D6] : 0.0%

// recorded Absolute mRNA transfection efficiency in HEK293 cells for CCCCCCCCCCCCCCCCNc1nc(NCCCCCC)nc(NCCN(CC)CC)n1 [Compound N6N16D7] : 0.5%

---

# Test system: HEK293 cells
# assay: Preliminary screening as DNA vectors, GFP transfection of HEK293 cells
# Format: cell-based
# assay setup: amino lipid/DOPE liposome with 75 ng plasmid DNA (psin-EGFP-IRES-Puro); number of GFP-expressing cells divided by total nuclei (Hoechst)
value kind: Absolute DNA transfection efficiency in HEK293 cells (%)
Reply with just the number (in %).

Example compounds with recorded Absolute DNA transfection efficiency in HEK293 cells:
compound	unit tag	test result
CCCCCCNc1nc(NCCN(C)C)nc(SCCCCCC)n1 [S6N6 D1]	%	0.1
CCCCCCCCCCCCCCCCCCNc1nc(NCCN(CC)CC)nc(SCCCCCCCCCCCCCC)n1	%	1.2
CCCCCCCCCCCCSc1nc(NCCN2CCN(C)CC2)nc(N(CCCCCCCCCCCC)CCCCCCCCCCCC)n1	%	0.3
CCCCCCCCCCCNc1nc(NCCN(C)C)nc(SCCCCCCC)n1 [S7N11 D1]	%	20.3
CCCCCCCCCCSc1nc(NCCCCCCCCC)nc(NCCN2CCOCC2)n1 [S10N9 D2]	%	3.7
CCCCCCCSc1nc(NCCCCCC)nc(NCCN2CCOCC2)n1 [S7N6 D2]	%	1.8

// recorded Absolute DNA transfection efficiency in HEK293 cells for CCCCCCCCCCCCCCCSc1nc(NCCCCCC)nc(NCCCN(C)C)n1 : 34.2

// recorded Absolute DNA transfection efficiency in HEK293 cells for CCCCCCCCCNc1nc(NCC2CCN(C)CC2)nc(SCCCCCCCC)n1 : 36.3

---

# Test system: HEK293 cells
# assay: Preliminary screening as DNA vectors, GFP transfection of HEK293 cells
# Type: cell-based
# assay setup: amino lipid/DOPE liposome with 75 ng plasmid DNA (psin-EGFP-IRES-Puro); number of GFP-expressing cells divided by total nuclei (Hoechst)
Mark not satisfied for Absolute DNA transfection efficiency in HEK293 cells values under 8%, and satisfied for everything at or above.

compound	group
CCCCCCCCCCCCCCCCCCSc1nc(NCCCCCCCCCCCCC)nc(NCCCN2CCOCC2)n1	not satisfied
CCCCCCCCCCCCCCCCCCNc1nc(NCCCN2CCN(C)CC2)nc(SCCCCCCCCCCCC)n1	not satisfied

Query :: Does CCCCCCCCCCCCCCCCNc1nc(NCCN2CCN(C)CC2)nc(SCCCCCCC)n1 have a reported Absolute DNA transfection efficiency in HEK293 cells of at least 8%?
Result :: satisfied

Query :: Does CCCCCCCCCCCCCCCCNc1nc(NCCN2CCOCC2)nc(SCCCCCC)n1 [S6N16 D2] have a reported Absolute DNA transfection efficiency in HEK293 cells of at least 8%?
Result :: not satisfied

Query :: Does CCCCCCCCCCCNc1nc(NCCN2CCCCC2)nc(SCCCCCCCCCC)n1 have a reported Absolute DNA transfection efficiency in HEK293 cells of at least 8%?
Result :: satisfied

Query :: Does CCCCCCCCCCCCCCCCCCSc1nc(NCCCCCCC)nc(NCCN2CCCC2)n1 have a reported Absolute DNA transfection efficiency in HEK293 cells of at least 8%?
Result :: satisfied

Query :: Does CCCCCCCCCCSc1nc(NCCCN(C)C)nc(SCCCCCC)n1 have a reported Absolute DNA transfection efficiency in HEK293 cells of at least 8%?
Result :: satisfied

Query :: Does CCCCCCCCCCCCNc1nc(NCC2CCN(C)CC2)nc(SCCCCCCC)n1 have a reported Absolute DNA transfection efficiency in HEK293 cells of at least 8%?
Result :: satisfied

---

# System: HEK293 cells
# assay: Preliminary screening as DNA vectors, GFP transfection of HEK293 cells
# Format: cell-based
# assay setup: HEK293 cells; lipid/DOPE liposome with 75 ng plasmid DNA (psin-EGFP-IRES-Puro); number of cells expressing GFP divided by total number of nuclei (Hoechst)
value kind: Absolute DNA transfection efficiency in HEK293 cells (%)
Reply with just the number (in %).

compound	test result
CCCCCCCCCCCCCCSc1nc(NCCN2CCCCC2)nc(SCCCCCCCCCC)n1 [Compound S10S14D4]	5.9
CCCCCCCCCCCCCCCNc1nc(NCCCN(C)C)nc(N(CCCCCCCCCCCC)CCCCCCCCCCCC)n1 [N15^2N12D6]	6.3
CCCCCCCCCCCCCCSc1nc(NCCCN(C)C)nc(SCCCCCCCCCCCC)n1 [Compound S12S14D6]	4.0
CCCCCCCCCCCCCCCCCCNc1nc(NCCCCCC)nc(NCC2CCN(C)CC2)n1 [Compound N6N18D10]	0.4

// recorded Absolute DNA transfection efficiency in HEK293 cells for CCCCCCCCCCCCCCCCNc1nc(NCCCCCCCCCCCCC)nc(NCC2CCN(C)CC2)n1 [Compound N13N16D10] : 0.0

// recorded Absolute DNA transfection efficiency in HEK293 cells for CCCCCCCCCCCCCNc1nc(NCCCCCCC)nc(NCC2CCN(C)CC2)n1 [Compound N7N13D10] : 1.6

// recorded Absolute DNA transfection efficiency in HEK293 cells for CCCCCCCCCCCCCCCCNc1nc(NCCCCCCCCCCCCC)nc(NCCN(CC)CC)n1 [Compound N13N16D7] : 1.5

// recorded Absolute DNA transfection efficiency in HEK293 cells for CCCCCCCCCCCCN(CCCCCCCCCCCC)c1nc(NCCN(CC)CC)nc(N(CCCCCCCCCCCC)CCCCCCCCCCCC)n1 [2N12^2N12D7] : 0.0

// recorded Absolute DNA transfection efficiency in HEK293 cells for CCCCCCCCCCCCCCCCSc1nc(NCCCN2CCN(C)CC2)nc(SCCCCCCCCCCCCCCC)n1 [Compound S15S16D9] : 0.3

// recorded Absolute DNA transfection efficiency in HEK293 cells for CCCCCCCCCNc1nc(NCCCCCCCC)nc(NCC2CCN(C)CC2)n1 [Compound N8N9D10] : 0.5
